FYI, the data here is from patent US3953449A.

Assay: Acute toxicity, 50% lethal dose (LD50), oral administration, mice
Conditions: mouse, in vivo, Swiss mice of the CDl strain, both sexes, calculated graphically
Measure: LD50 (mg/kg)
Report the value in mg/kg with no unit label.

Worked cases, answers included:
1. COc1cc(C(=O)OCCN2CCN(c3cccc(C(F)(F)F)c3)CC2)cc(OC)c1OC	2200
2. CC(=O)OCCN1CCN(c2cccc(C(F)(F)F)c2)CC1	925

Ask | // query LD50 value for entry `CCCC(CCC)C(=O)OCCN1CCN(c2cccc(C(F)(F)F)c2)CC1`
Reply | 2200
